molecular target: human Mac-1 (integrin αMβ2, CD11b/CD18) (human, UniProt P11215 17-1152; P05107 23-769); assay: flow cytometry, HEK293/Mac-1 cells, PBS (Mock), 10 µg/ml of this antibody; binding of reporter mAb m24 read
Catalogue of m24 (Expression relative to IgG4) values

Known results for binders:
anti-Mac-1 antibody clone DF4M-31 (antibody, human IgG4, V domains shown) VH: EVQLVESGGGLVQPGGSLRLSCAASGFTFTSATMSWVRQAPGKGLEWVSIISPGGSETYYADSVKGRFTISRDNSKNTLYLQMNSLRAEDTAVYYCARGGDYPSYYMDPWGQGTLVTVSS VL: DIQMTQSPSSLSASVGDRVTITCRASQSISNYLAWYQQKPGKAPKLLIYGTSSLQSGVPSRFSGSGSGTDFTLTISSLQPEDFATYYCQQGHQWPWTFGQGTKVEIK
3.77 relative to IgG4
anti-Mac-1 antibody clone 28E07 (antibody, human IgG4, V domains shown) VH: QVQLQQSGPELVKPGASVKISCKASGYSFTDYNMNWVKQSNGKSLEWIGEINPGYGTSRYNQKFKDKATLTVDQSSTTAYMQLNSLTSEDSAVYYCARADVDYGDVMDYWGQGTTVTVSS VL: DIELTQSPAIMSASPGEKVTMTCSASSSVSYMHWYQQKSGTSPKRWIYDTSKLASGVPTRFSGSGSGTSYSLTISSMEAEDAATYYCQQWSSNPPTFGAGTKLELK
0.63 relative to IgG4

Ask: What does the record list as m24 (Expression relative to IgG4) for anti-Mac-1 antibody clone m2396 (antibody, human IgG4, V domains shown) VH: QVQLQESGPGLVKPSETLSLTCTVSGFSLTSNSISWVRQPPGKGLEWMGAIWSGGGTDYNPSLKSRLTISRDTSKSQVFLKMSSLTAADTAIYFCTRGGYPYYFDYWGQGVLVTVSS VL: DIVMTQSPDSLAVSLGERVTINCKSSQSLLYSENQENYLAWYQQKPGQSPKLLIYWASTRQSGVPDRFSGSGSGTDFTLTISSVQAEDLAIYYCQQYYDTPLTFGGGTKLEIK ?
Reply: 0.88 relative to IgG4

Every entry's value here was drawn from patent US20240084017A1.
